Item-by-item account of growth inhibition
measurement_notes: NCI Yeast Anticancer Drug Screen. Data for the bub3 strain (AID 167)
conditions: S. cerevisiae bub3 mutant strain, at 50.0 µM (retest, dose inferred, filed as 5.0), stronger effect = higher value
About 79,000 compounds went through this panel and 15% of them were active in at least one assay; those are over-represented in the sample as a whole.
readout_kind: growth inhibition (%)

{"columns": ["compound", "value_unit", "test_value"],
 "data": [
  ["CN(C)C1=NC(N(C)C)=C2C=CC=C12", "%", 73],
  ["CCC1([N+](=O)[O-])COC(c2ccc3c(c2)OCO3)OC1 (configuration not stated)", "%", -23],
  ["O[C@H](CNCCS)[C@@H](O)CNCCS", "%", 17],
  ["CC1CCN(C(=S)NNC(C)c2cc3ccccc3cn2)CC1 (configuration not stated)", "%", 97],
  ["COc1ccc(/C(C#N)=C(/N)SCc2ccccc2Cl)cc1", "%", 49],
  ["Cc1cc(OC(=O)CCl)ccc1C(C)(C)C", "%", 5],
  ["O=S(=O)(c1cc(Br)ccc1O)c1cc(Br)ccc1O", "%", 100],
  ["NC(=O)NOC(=O)c1ccccc1", "%", 95],
  ["Clc1ccc(CNc2ccc(Br)cc2)cc1", "%", 86],
  ["C=CCCCCCCCCC(=O)CCCCCCCCC=C", "%", 4],
  ["CCC[CH2][Sn]([CH2]CCC)([NH]c1ncnc2[nH]cnc12)[NH]c1ncnc2[nH]cnc12", "%", 95],
  ["Nc1nc(N)c2nc(CNc3ccc(C(=O)NC(CCC(=O)O)C(=O)O)cc3)ccc2n1 (configuration not stated)", "%", 3]
]}
